test-details: cAMP Responsive Elements (CRE) small molecule antagonists, cell-based qHTS assay (AID 1963591)
conditions-used: CRE-bla HEK293T, beta-lactamase FRET ratio; series mostly up to 92.4 µM
Records with an inconclusive call do not appear. The source made the active and inactive calls. Calls come from the whole dose curve; as a rule, active = well fitted inhibition curve with a large enough effect in the signal ratio in the repeat runs (not every such curve was filed as active); inconclusive = weak or mixed curves, or effect the other way; inactive = flat fitted curve, though single readings scatter; the % refers to the signal ratio.
parameter-measured: outcome

Sample answers from the record:
**Query** Sample CC[C@H](N)c1ccccc1 — what was its outcome?
**Result** inactive

**Query** Also, CCCCCCCCCCCCOS(=O)(=O)O please.
**Result** inactive

**Query** Also, Cc1nn(-c2cc(NS(C)(=O)=O)c(Cl)cc2Cl)c(=O)n1C(F)F please.
**Result** inactive

**Query** Also, OC(Cc1ccccc1Cl)(Cn1cncn1)C1(Cl)CC1 (centres undefined) please.
**Result** inactive

**Query** Also, CCCCCCCCCCCCCCCC[N+](C)(C)C please.
**Result** inactive

More entries:
**Query** Sample CCC1(CC)C(=O)C=CNC1=O — what was its outcome?
**Result** inactive

**Query** Also, CN(CCO)CCO please.
**Result** inactive

**Query** Also, CN(N=O)C(N)=O please.
**Result** inactive

**Query** Also, CC(C)OC(=O)Cc1ccccc1 please.
**Result** inactive

**Query** Also, O=C(O)COc1ccc(Cl)cc1Cl please.
**Result** inactive

**Query** Also, O=c1ccc(=O)[nH][nH]1 please.
**Result** inactive
